All values here come from patent US4020111A.

System: houseflies
run.description: percent kill with Diazinon, Table XXVII (strain not given)
Assay type: in vivo, housefly
test.conditions: Diazinon 5 + synergist 10 μg/fly, 1440 min
Hi there, I'd appreciate the recorded percent kill for every entry that follows.
Express your answer in %, writing the number without its unit.

Which measured percent kill belongs to C#CCON=Cc1ccc(OC)c(OC)c1 , tested on houseflies?
45

Which measured percent kill belongs to C#CCON=Cc1cccc2ccccc12 , tested on houseflies?
55

Which measured percent kill belongs to C#CCON=C(C)c1ccc(Cl)cc1 , tested on houseflies?
100

Which measured percent kill belongs to C#CCON=Cc1ccc(Cl)cc1Cl , tested on houseflies?
90
